Form field: T/C (one value per entry).
- Test system: L1210 leukemia ip in BDF1 mice, survival T/C
- ASSAY_DETAILS: NCI In Vivo Anticancer Drug Screen. Data for tumor model L1210 Leukemia (intraperitoneal) in B6D2F1 (BDF1) mice
- PARTICULARS: endpoint: mean survival time; dose: 25.0 mg/kg/injection; schedule: Q01DX009 (ip); vehicle: saline with Tween-80; higher = longer survival
Inconclusive results and toxic doses are left out.

Check out these entries, answers already filled in.
                                   compound  property_name  reported_measurement
0  NC(=O)C1(Cl)CC2C=CC1C2 (stereo unspecified)            T/C       90 % of control
1               Cc1cc(O)n(Cc2ccccc2)c(=O)c1            T/C       96 % of control
2  OC1CC2CC1C1C3C=CC(C3)C21 (stereo unspecified)            T/C      101 % of control

### Prompt Query (compound): CCN(CC)c1ccc(N)cc1 ; field requested: T/C
### Response 104 % of control

### Prompt Query (compound): CCN(CC)CCCOC(=O)N(Cc1ccc(Cl)cc1)C1CC1 ; field requested: T/C
### Response 100 % of control

### Prompt Query (compound): CC(=O)OC1(c2ccc(Cl)cc2)OC(=O)C(c2ccccc2)=C1Cc1ccccc1 (stereo unspecified) ; field requested: T/C
### Response 86 % of control

###

- System: L1210 leukemia ip in BDF1 mice, survival T/C
- ASSAY_DETAILS: NCI In Vivo Anticancer Drug Screen. Data for tumor model L1210 Leukemia (intraperitoneal) in B6D2F1 (BDF1) mice
- PARTICULARS: endpoint: mean survival time; dose: 200.0 mg/kg/injection; schedule: Q01DX001 (ip); vehicle: other; higher = longer survival
Inconclusive results and toxic doses are left out.
Form field: T/C (one value per entry).

                    smiles_code  reported_measurement
0             CN(C=O)COCN(C)C=O       97 % of control
1  COc1ccc2ccc(=O)oc2c1CC=C(C)C       93 % of control

### Prompt Query (molecule): CCOP(=O)(Cc1ccc(N=Cc2cnc3nc(NC(C)=O)[nH]c(=O)c3n2)cc1)OCC ; field requested: T/C
### Response 105 % of control

###

- Test system: L1210 leukemia ip in BDF1 mice, survival T/C
- ASSAY_DETAILS: NCI In Vivo Anticancer Drug Screen. Data for tumor model L1210 Leukemia (intraperitoneal) in B6D2F1 (BDF1) mice
- PARTICULARS: endpoint: mean survival time; dose: 200.0 mg/kg/injection; schedule: Q01DX001 (ip); vehicle: saline with Tween-80; higher = longer survival
Inconclusive results and toxic doses are left out.
PROPERTY_NAME: T/C

Check out these entries, answers already filled in.
                                   molecule  property_name  reported_measurement
0           CCOC(=O)c1cnc(SC)nc1Oc1ccccc1Cl            T/C       97 % of control
1  COC(=O)c1ccc(N(C)CC(=O)CNc2nc(N)nc(SCc3ccccc3)c2[N+](=O)[O-])cc1            T/C       89 % of control
2   CCOc1ccc(NC(=O)Oc2ccc(-c3ccccc3)cc2)cc1            T/C       91 % of control
3  CC(=O)OC1CCC2(C)C(CCC3C2CCC2(C)C3CC3OC(CCC(C)(C)O)C(C)C32)C1 (centres undefined)            T/C       92 % of control
4                      Nc1nnnn1-c1ccc(O)cc1            T/C      103 % of control

### Prompt Query (molecule): Cc1ccc(Cl)cc1NC(=O)Nc1cc(Cl)c(Cl)cc1C ; field requested: T/C
### Response 86 % of control

Data origin: PubChem BioAssay AID248
